# testedTarget: Capsid scaffolding protein (Human cytomegalovirus (strain AD169) (HHV-5) (Human herpesvirus 5))
# experimentDescription: Inhibitory concentration against HCMV protease.
We label by threshold. Values of IC50 strictly beneath 7 µM are yes. Values of 7 µM and up are no.

# example entries with known answers
* CN(c1ccc2c(/C=C/c3ccc4cc(Cl)ccc4n3)cccc2c1)S(=O)(=O)C(F)(F)F | no
* O=C(O)c1ccc(C(=O)Nc2ccc3c(COc4cccc(Cl)c4)cccc3c2)cc1 | no
* O=C(O)c1ccc(C(=O)Nc2ccc3c(/C=C/c4ccc5ccc(Cl)cc5n4)cccc3c2)cc1 | no
* O=C(O)c1ccc(CNc2ccc3c(/C=C/c4ccc5ccc(Cl)cc5n4)cccc3c2)cc1 | yes
* O=C(Nc1ccc2c(/C=C/c3ccc4ccc(Cl)cc4n3)cccc2c1)NS(=O)(=O)c1ccc(Cl)cc1 | yes

Exercise: Is IC50 of O=C(Nc1ccc2c(/C=C/c3ccc4ccc(Cl)cc4n3)cccc2c1)c1ccccc1 strictly below 7 µM?
Solution: no

Exercise: Strictly below 7 µM in IC50? O=C(O)c1ccc(C(=O)Nc2ccc3c(OCc4cccc(C(F)(F)F)c4)cccc3c2)cc1
Solution: no

Exercise: Here's an entry: O=S(=O)(Nc1ccc2c(/C=C/c3ccccc3)cccc2c1)C(F)(F)F . Is its IC50 below 7 µM?
Solution: no

Exercise: Here's an entry: O=C(O)c1ccc(CNc2ccc3c(COc4ccccc4)cccc3c2)cc1 . Is its IC50 below 7 µM?
Solution: yes

Exercise: IC50 under 7 µM? Item: O=S(=O)(Nc1ccc2c(/C=C/c3ccc4cc(Cl)ccc4n3)cccc2c1)C(F)(F)F
Solution: yes

Exercise: Field: below-cutoff. Rule: recorded IC50 strictly less than 7 µM. Subject: O=S(=O)(Nc1ccc2c(/C=C/c3ccc4ccccc4n3)cccc2c1)C(F)(F)F
Solution: no

Exercise: I'd appreciate it if you could check whether Cc1ccc2nc(/C=C/c3cccc4cc(NS(=O)(=O)C(F)(F)F)ccc34)ccc2c1 has IC50 smaller than 7 µM.
Solution: yes

Exercise: Item O=S(=O)(Nc1ccc2c(/C=C/c3ccccn3)cccc2c1)C(F)(F)F : IC50 beneath 7 µM, strictly?
Solution: no

Exercise: Strictly below 7 µM: is that where IC50 of COc1ccc2nc(/C=C/c3cccc4cc(NS(=O)(=O)C(F)(F)F)ccc34)ccc2c1 sits?
Solution: yes

Exercise: Is 7 µM strictly greater than the compound's reported IC50? compound: O=S(=O)(Nc1ccc2c(/C=C/c3ccc4ccc(Cl)cc4n3)cccc2c1)C(F)(F)F
Solution: no

Exercise: Consider the compound O=C(O)c1ccc(C(=O)Nc2ccc3c(COc4ccc(Br)cc4)cccc3c2)cc1 . Is its IC50 strictly less than 7 µM?
Solution: no

----------
Reported pIC50 values are given for each entry in this list.
# testedTarget: Capsid scaffolding protein (Human cytomegalovirus (strain AD169) (HHV-5) (Human herpesvirus 5), UniProt P16753)
# experimentDescription: Inhibitory concentration against HCMV protease.
Lab note: report pIC50 as minus log10 of the concentration in molar units, number only.

* O=C(O)c1ccc(C(=O)Nc2ccc3c(COc4cccc(C(F)(F)F)c4)cccc3c2)cc1 | 4.82
* O=C(O)c1ccc(CNc2ccc3c(COc4cccc(Cl)c4)cccc3c2)cc1 | 5.51
* O=S(=O)(Nc1ccc2c(/C=C/c3ccc4cccc(Cl)c4n3)cccc2c1)C(F)(F)F | 5.49
* O=C(O)c1ccc(C(=O)Nc2ccc3c(OCc4cccc(Br)c4)cccc3c2)cc1 | 5.21
* O=S(=O)(Nc1ccc2c(/C=C/c3cccc(C(F)(F)F)c3)cccc2c1)C(F)(F)F | 5.19

Exercise: Quick check: pIC50 of Cc1ccc(S(=O)(=O)NC(=O)Nc2ccc3c(/C=C/c4ccc5ccc(Cl)cc5n4)cccc3c2)cc1 ?
Solution: 5.08

Exercise: Recorded pIC50 of O=S(=O)(Nc1ccc2c(/C=C/c3ccc(Cl)cc3)cccc2c1)C(F)(F)F , please.
Solution: 5.37

Exercise: Value lookup for pIC50; key = CN(C)c1ccc2nc(/C=C/c3cccc4cc(NS(=O)(=O)C(F)(F)F)ccc34)ccc2c1
Solution: 5.43

----------
# testedTarget: Capsid scaffolding protein (Human cytomegalovirus (strain AD169) (HHV-5) (Human herpesvirus 5))
# Sequence (P16753 whole entry): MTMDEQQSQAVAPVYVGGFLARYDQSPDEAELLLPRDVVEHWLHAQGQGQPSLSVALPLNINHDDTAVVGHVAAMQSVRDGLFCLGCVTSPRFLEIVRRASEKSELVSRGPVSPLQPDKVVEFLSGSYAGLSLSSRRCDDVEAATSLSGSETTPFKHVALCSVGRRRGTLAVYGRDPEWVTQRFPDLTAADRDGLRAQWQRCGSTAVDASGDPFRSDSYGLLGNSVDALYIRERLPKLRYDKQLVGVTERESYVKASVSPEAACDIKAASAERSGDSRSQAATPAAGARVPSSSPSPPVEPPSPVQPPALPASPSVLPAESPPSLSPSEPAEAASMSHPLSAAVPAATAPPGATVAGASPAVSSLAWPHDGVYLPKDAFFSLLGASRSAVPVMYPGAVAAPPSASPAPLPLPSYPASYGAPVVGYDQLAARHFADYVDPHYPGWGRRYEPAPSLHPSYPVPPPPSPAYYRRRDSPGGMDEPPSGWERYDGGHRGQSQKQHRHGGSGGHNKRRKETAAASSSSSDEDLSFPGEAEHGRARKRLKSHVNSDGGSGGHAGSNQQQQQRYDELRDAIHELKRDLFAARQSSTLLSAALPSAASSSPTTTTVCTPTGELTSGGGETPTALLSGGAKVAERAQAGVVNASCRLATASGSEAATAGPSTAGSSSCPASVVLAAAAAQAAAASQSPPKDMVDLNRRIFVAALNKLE
# experimentDescription: Inhibitory concentration against HCMV protease.
measure: log10(IC50) (log10 of the value in µM)
Hi team, quick reminder: these entries are log10 of IC50 (µM).

// solved cases for log10(IC50) follow
* O=C(O)c1ccc(CNc2ccc3c(/C=C/c4cccc(C(F)(F)F)c4)cccc3c2)cc1 | 0.84
* O=S(=O)(Nc1ccc2c(/C=C/c3cc(Cl)c4ccccc4n3)cccc2c1)C(F)(F)F | 1.02
* O=C(O)c1ccc(C(=O)Nc2ccc3c(/C=C/c4cccc(C(F)(F)F)c4)cccc3c2)cc1 | 0.84
* O=C(O)c1ccc(C(=O)Nc2ccc3c(OCc4cccc(Cl)c4)cccc3c2)cc1 | 0.71
* COc1cccc(/C=C/c2cccc3cc(NS(=O)(=O)C(F)(F)F)ccc23)c1 | 0.82
* O=C(Nc1ccc2c(/C=C/c3ccc4ccc(Cl)cc4n3)cccc2c1)NS(=O)(=O)c1ccccc1 | 0.83
* O=C(O)c1ccc(CNc2ccc3c(COc4ccc(Br)cc4)cccc3c2)cc1 | 0.45
* CC(=O)Nc1ccc2c(/C=C/c3ccc4cc(Cl)ccc4n3)cccc2c1 | 1.63

Could you now consider this next molecule?
Exercise: log10(IC50) lookup needed for O=S(=O)(Nc1ccc2c(/C=C/c3ccc4ccccc4c3)cccc2c1)C(F)(F)F , thanks.
Solution: 1.18
